Hello, the source for this data is ChEMBL document CHEMBL4425153, in case you need it.

Target: Nonstructural protein 5A (Hepatitis C virus)
Sequence (whole entry): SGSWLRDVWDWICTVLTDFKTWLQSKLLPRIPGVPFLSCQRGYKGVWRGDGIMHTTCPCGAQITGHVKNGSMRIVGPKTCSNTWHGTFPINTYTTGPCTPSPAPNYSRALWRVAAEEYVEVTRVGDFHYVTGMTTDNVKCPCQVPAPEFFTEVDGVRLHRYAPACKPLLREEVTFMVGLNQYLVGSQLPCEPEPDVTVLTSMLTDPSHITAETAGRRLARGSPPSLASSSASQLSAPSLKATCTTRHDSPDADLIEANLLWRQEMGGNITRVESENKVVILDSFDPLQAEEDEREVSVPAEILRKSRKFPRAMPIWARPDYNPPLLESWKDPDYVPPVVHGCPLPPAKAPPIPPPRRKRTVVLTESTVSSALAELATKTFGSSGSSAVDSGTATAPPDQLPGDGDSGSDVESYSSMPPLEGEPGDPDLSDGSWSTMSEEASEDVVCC
Assay: Inhibition of wild type HCV genotype 2b NS5A assessed as reduction in viral RNA level by cell based real time PCR method
Details: Hepatitis C virus subtype 2b
Below, each of the molecules is paired with its reported EC90 value.
Write down the numeric answer in nM and omit the unit.

structure-string: COCC[C@H](NC(=O)OC)C(=O)N1CCC[C@H]1c1ncc(-c2ccc3c(c2)O[C@@H](c2ccccc2)n2c-3cc3cc(-c4cnc([C@@H]5CCCN5C(=O)[C@H](CCOC)NC(=O)OC)[nH]4)ccc32)[nH]1
assayed-system: Nonstructural protein 5A (Hepatitis C virus)
numeric-value: 91

Consider the molecule COC(=O)N[C@H](C(=O)N1CCC[C@H]1c1nc(-c2ccc3c(c2)O[C@@H](c2ccccc2)n2c-3cc3cc(-c4c[nH]c([C@@H]5CCCN5C(=O)[C@@H](NC(=O)OC)C(C)C)n4)ccc32)c[nH]1)C(C)C and give its measured EC90. 11

---

System: Nonstructural protein 5A (Hepatitis C virus), Q5L478 [Y93H]
Sequence (Q5L478 entry or part of it Y93H): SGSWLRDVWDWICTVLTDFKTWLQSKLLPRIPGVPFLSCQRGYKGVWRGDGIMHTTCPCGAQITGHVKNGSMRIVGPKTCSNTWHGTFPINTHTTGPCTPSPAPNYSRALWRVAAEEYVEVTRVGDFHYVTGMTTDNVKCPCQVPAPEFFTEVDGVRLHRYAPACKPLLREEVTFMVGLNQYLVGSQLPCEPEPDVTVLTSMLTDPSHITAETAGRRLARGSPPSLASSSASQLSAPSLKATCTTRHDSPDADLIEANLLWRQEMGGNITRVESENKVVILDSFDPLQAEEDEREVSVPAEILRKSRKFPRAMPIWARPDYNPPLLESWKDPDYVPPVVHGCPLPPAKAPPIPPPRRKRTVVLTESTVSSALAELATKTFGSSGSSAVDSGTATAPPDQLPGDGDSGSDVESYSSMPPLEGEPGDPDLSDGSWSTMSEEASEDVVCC
Assay: Inhibition of HCV genotype 1a NS5A Y93H mutant assessed as reduction in viral RNA level by cell based real time PCR method
Details: Hepatitis C virus subtype 1a
Each record here notes measured EC90.
// units = nM; emit number, no label

structure-string: COC(=O)N[C@@H](CC1CCOCC1)C(=O)N1CCC[C@H]1c1ncc(-c2ccc3c(c2)O[C@@H](c2ccccc2)n2c-3cc3cc(-c4cnc([C@@H]5CCCN5C(=O)[C@H](CC5CCOCC5)NC(=O)OC)[nH]4)ccc32)[nH]1
measure-unit: nM
EC90: 40

# get_value(readout='EC90', item= COCC[C@H](NC(=O)OC)C(=O)N1CCC[C@H]1c1ncc(-c2ccc3c(c2)O[C@@H](c2ccccc2)n2c-3cc3cc(-c4cnc([C@@H]5CCCN5C(=O)[C@H](CCOC)NC(=O)OC)[nH]4)ccc32)[nH]1 ) 46

---

Tested on: Nonstructural protein 5A (Hepatitis C virus), Q5L478 [UNDEFINED MUTATION]
Assay: Inhibition of HCV genotype 1a NS5A L31V mutant assessed as reduction in viral RNA level by cell based real time PCR method
Settings: Hepatitis C virus subtype 1a
Reported EC90 values follow for various compounds

structure-string: COC(=O)NC1(C(=O)N2CCC[C@H]2c2ncc(-c3ccc4c(c3)O[C@@H](c3ccccc3)n3c-4cc4cc(-c5cnc([C@@H]6CCCN6C(=O)C6(NC(=O)OC)CCOCC6)[nH]5)ccc43)[nH]2)CCOCC1
EC90: > 100 nM

structure-string: COC(=O)N[C@H](C(=O)N1CCC[C@H]1c1ncc(-c2ccc3c(c2)O[C@@H](c2ccccc2)n2c-3cc3cc(-c4cnc([C@@H]5CCCN5C(=O)[C@@H](NC(=O)OC)C5CCOCC5)[nH]4)ccc32)[nH]1)C1CCOCC1
EC90: < 0.2 nM

structure-string: COC(=O)N[C@H](C(=O)N1CCC[C@H]1c1ncc(-c2ccc3c(c2)O[C@@H](c2ccccc2)n2c-3cc3cc(-c4cnc([C@@H]5CCCN5C(=O)[C@@H](NC(=O)OC)C5CC5)[nH]4)ccc32)[nH]1)C1CC1
EC90: > 100 nM

structure-string: CN(C)[C@@H](C(=O)N1CCC[C@H]1c1ncc(-c2ccc3c(c2)O[C@@H](c2ccccc2)n2c-3cc3cc(-c4cnc([C@@H]5CCCN5C(=O)[C@@H](c5ccc(F)cc5)N(C)C)[nH]4)ccc32)[nH]1)c1ccc(F)cc1
EC90: > 100 nM

structure-string: COC(=O)N[C@@H](C(=O)N1CCC[C@H]1c1ncc(-c2ccc3c(c2)O[C@@H](c2ccccc2)n2c-3cc3cc(-c4cnc([C@@H]5CCCN5C(=O)[C@H](NC(=O)OC)C5CCOCC5)[nH]4)ccc32)[nH]1)C1CCOCC1
EC90: > 100 nM

Next compound, EC90 to be filled in.
Request - read-out EC90 | tested on Nonstructural protein 5A (Hepatitis C virus), Q5L478 [UNDEFINED MUTATION] | compound COC(=O)N[C@H](C(=O)N1CCC[C@H]1c1ncc(-c2ccc3c(c2)O[C@@H](c2ccccc2)n2c-3cc3cc(-c4cnc([C@@H]5CCCN5C(=O)[C@@H](NC(=O)OC)[C@@H](C)O)[nH]4)ccc32)[nH]1)[C@@H](C)O > 100 nM
